System: sterol 14-reductase (Rattus norvegicus, UniProt A0ACM8Q6X4)
Construct: microsome which was used as an enzyme source of sterol 14-reductase; from tissue; host or cells: liver microsomes of male Sprague-Dawley rats fed lovastatin and cholestyramine
Sequence (A0ACM8Q6X4 1-418): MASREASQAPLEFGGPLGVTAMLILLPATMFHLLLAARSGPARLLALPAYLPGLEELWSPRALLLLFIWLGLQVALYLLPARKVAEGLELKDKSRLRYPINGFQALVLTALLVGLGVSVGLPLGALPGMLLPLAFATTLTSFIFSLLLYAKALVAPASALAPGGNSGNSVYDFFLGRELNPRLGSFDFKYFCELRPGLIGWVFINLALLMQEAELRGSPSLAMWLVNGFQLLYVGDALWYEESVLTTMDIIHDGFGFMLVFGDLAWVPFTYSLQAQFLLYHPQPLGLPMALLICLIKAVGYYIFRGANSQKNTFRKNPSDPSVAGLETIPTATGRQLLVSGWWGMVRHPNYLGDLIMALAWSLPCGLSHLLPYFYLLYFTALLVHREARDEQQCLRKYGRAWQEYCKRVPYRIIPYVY
Assay name: Inhibition of sterol 14-reductase in rat liver microsomes
Assay type: biochemical
Condition parameters: Enzyme Activity (relative in vitro activity for sterol 14-reductase, IC50 class)
Reported property: IC50

Reported IC50, molecule C=C(COc1c(OC)ccc2c(CC)c3[n+](cc12)CCc1cc(OC)c(OC)cc1-3)C[Si](C)(C)C [Compound No. 44] : ____ > 100 µM
